experiment.notes: Rat blood-brain barrier evaluation
Format: in vivo
experimental.setup: rat, plasma, oral; SD rats, intragastric 10 mg/kg, 0.167 h; read-out: Average Plasma concentration (N=3)
reported.property: concentration at 0.167 h (ng/mL)

P: NC/C(=C\F)Cn1cc2c(=O)n(C3CC3)ccc2n1
Q: NC/C(=C\F)Cn1cc2c(n1)CCN(C1CC1)C2=O
R: CC(C)(C)NC(=O)c1ccc(OC/C(=C/F)CN)cc1 [PXS-4728, reference compound]
# input Sort low-to-high on concentration at 0.167 h, please. Answer by listing the labels in the requested order.
# output Q, R, P

====

experiment.notes: Rat blood-brain barrier evaluation
Type: in vivo
experimental.setup: rat, plasma, oral; SD rats, intragastric 10 mg/kg, 1 h; read-out: Average Plasma concentration (N=3)
reported.property: concentration at 1 h (ng/mL)

[[record]]
compound = "NC/C(=C\\F)Cn1cc2c(n1)CCN(C1CC1)C2=O"
reported_property = "concentration at 1 h"
measurement_units = "ng/mL"
test_value = 1300


1: CC(C)(C)NC(=O)c1ccc(OC/C(=C/F)CN)cc1 [PXS-4728, reference compound]
2: NC/C(=C\F)Cn1cc2c(=O)n(C3CC3)ccc2n1
# input Of the two listed items, which has the higher concentration at 1 h? First: 1 Second: 2 Mark your answer with the label of the selected entry.
# output 2

From: patent US12371432B2
